Reference source: BigSolDB 2.1

# condition: in 3-pentanone, 318.15 K
endpoint.name: solubility (mole fraction)

Dear colleague, I am looking for the recorded solubility (mole fraction) of the following compound: `O=C(O)CCCCCCCCCCC(=O)O`
0.0094

###

# condition: in acetic acid, 288.15 K
endpoint.name: solubility (mole fraction)
Numbers only.

Dear colleague, I am looking for the recorded solubility (mole fraction) of the following compound: `O=C(O)CCCCCCCCCCC(=O)O`
0.0032

###

# condition: in 3-pentanone, 288.15 K
endpoint.name: solubility (mole fraction)
Give bare numbers.

Dear colleague, I am looking for the recorded solubility (mole fraction) of the following compound: `O=C(O)CCCCCCCCCCC(=O)O`
0.0013

###

# condition: in ethanol, 298.15 K
endpoint.name: solubility (mole fraction)
One number for each entry.

Dear colleague, I am looking for the recorded solubility (mole fraction) of the following molecule: `O=C(O)CCCCCCCCCCC(=O)O`
0.0145

###

# condition: in acetic acid, 308.15 K
endpoint.name: solubility (mole fraction)

Dear colleague, I am looking for the recorded solubility (mole fraction) of the following compound: `O=C(O)CCCCCCCCCCC(=O)O`
0.0112

###

# condition: in 2-butanone, 288.15 K
endpoint.name: solubility (mole fraction)

Dear colleague, I am looking for the recorded solubility (mole fraction) of the following molecule: `O=C(O)CCCCCCCCCCC(=O)O`
0.0025

###

# condition: in ethyl acetate, 318.15 K
endpoint.name: solubility (mole fraction)

Dear colleague, I am looking for the recorded solubility (mole fraction) of the following compound: `O=C(O)CCCCCCCCCCC(=O)O`
0.009

###

# condition: in 3-pentanone, 303.15 K
endpoint.name: solubility (mole fraction)
One number for each entry.

Dear colleague, I am looking for the recorded solubility (mole fraction) of the following compound: `O=C(O)CCCCCCCCCCC(=O)O`
0.0036

###

# condition: in acetic acid, 318.15 K
endpoint.name: solubility (mole fraction)
One number for each entry.

Dear colleague, I am looking for the recorded solubility (mole fraction) of the following molecule: `O=C(O)CCCCCCCCCCC(=O)O`
0.02

###

# condition: in ethanol, 318.15 K
endpoint.name: solubility (mole fraction)

Dear colleague, I am looking for the recorded solubility (mole fraction) of the following compound: `O=C(O)CCCCCCCCCCC(=O)O`
0.0408

###

# condition: in acetone, 318.15 K
endpoint.name: solubility (mole fraction)

Dear colleague, I am looking for the recorded solubility (mole fraction) of the following compound: `O=C(O)CCCCCCCCCCC(=O)O`
0.0193

###

# condition: in acetic acid, 303.15 K
endpoint.name: solubility (mole fraction)

Dear colleague, I am looking for the recorded solubility (mole fraction) of the following compound: `O=C(O)CCCCCCCCCCC(=O)O`
0.0079

###

# condition: in acetone, 308.15 K
endpoint.name: solubility (mole fraction)
Give bare numbers.

Dear colleague, I am looking for the recorded solubility (mole fraction) of the following compound: `O=C(O)CCCCCCCCCCC(=O)O`
0.0107

###

# condition: in ethanol, 323.15 K
endpoint.name: solubility (mole fraction)
Give bare numbers.

Dear colleague, I am looking for the recorded solubility (mole fraction) of the following molecule: `O=C(O)CCCCCCCCCCC(=O)O`
0.0516

###

# condition: in ethyl acetate, 298.15 K
endpoint.name: solubility (mole fraction)
Give bare numbers.

Dear colleague, I am looking for the recorded solubility (mole fraction) of the following compound: `O=C(O)CCCCCCCCCCC(=O)O`
0.0024

###

# condition: in 2-butanone, 298.15 K
endpoint.name: solubility (mole fraction)
One number for each entry.

Dear colleague, I am looking for the recorded solubility (mole fraction) of the following compound: `O=C(O)CCCCCCCCCCC(=O)O`
0.005

###

# condition: in ethanol, 308.15 K
endpoint.name: solubility (mole fraction)
One number for each entry.

Dear colleague, I am looking for the recorded solubility (mole fraction) of the following compound: `O=C(O)CCCCCCCCCCC(=O)O`
0.025

###

# condition: in ethyl acetate, 323.15 K
endpoint.name: solubility (mole fraction)
Answers are plain numbers.

Dear colleague, I am looking for the recorded solubility (mole fraction) of the following compound: `O=C(O)CCCCCCCCCCC(=O)O`
0.0122

###

# condition: in acetone, 298.15 K
endpoint.name: solubility (mole fraction)
Answers are plain numbers.

Dear colleague, I am looking for the recorded solubility (mole fraction) of the following compound: `O=C(O)CCCCCCCCCCC(=O)O`
0.0058

###

# condition: in 2-butanone, 318.15 K
endpoint.name: solubility (mole fraction)
Answers are plain numbers.

Dear colleague, I am looking for the recorded solubility (mole fraction) of the following molecule: `O=C(O)CCCCCCCCCCC(=O)O`
0.0189

###

# condition: in 2-butanone, 313.15 K
endpoint.name: solubility (mole fraction)
One number for each entry.

Dear colleague, I am looking for the recorded solubility (mole fraction) of the following molecule: `O=C(O)CCCCCCCCCCC(=O)O`
0.0133

###

# condition: in ethyl acetate, 313.15 K
endpoint.name: solubility (mole fraction)
One number for each entry.

Dear colleague, I am looking for the recorded solubility (mole fraction) of the following molecule: `O=C(O)CCCCCCCCCCC(=O)O`
0.0066

###

# condition: in ethanol, 293.15 K
endpoint.name: solubility (mole fraction)
Answers are plain numbers.

Dear colleague, I am looking for the recorded solubility (mole fraction) of the following molecule: `O=C(O)CCCCCCCCCCC(=O)O`
0.0107

###

# condition: in ethyl acetate, 308.15 K
endpoint.name: solubility (mole fraction)
Give bare numbers.

Dear colleague, I am looking for the recorded solubility (mole fraction) of the following compound: `O=C(O)CCCCCCCCCCC(=O)O`
0.0048

###

# condition: in 3-pentanone, 308.15 K
endpoint.name: solubility (mole fraction)
Numbers only.

Dear colleague, I am looking for the recorded solubility (mole fraction) of the following compound: `O=C(O)CCCCCCCCCCC(=O)O`
0.005

###

# condition: in 3-pentanone, 298.15 K
endpoint.name: solubility (mole fraction)
Give bare numbers.

Dear colleague, I am looking for the recorded solubility (mole fraction) of the following compound: `O=C(O)CCCCCCCCCCC(=O)O`
0.0026

###

# condition: in ethyl acetate, 288.15 K
endpoint.name: solubility (mole fraction)
One number for each entry.

Dear colleague, I am looking for the recorded solubility (mole fraction) of the following molecule: `O=C(O)CCCCCCCCCCC(=O)O`
0.0012

###

# condition: in 3-pentanone, 313.15 K
endpoint.name: solubility (mole fraction)
One number for each entry.

Dear colleague, I am looking for the recorded solubility (mole fraction) of the following molecule: `O=C(O)CCCCCCCCCCC(=O)O`
0.0068
